These measurements were taken from patent US6482921B1.

- Test system: Pasteurella multocida pm002
- test.summary: MIC broth microdilution, P. multocida pm002 (wild type)
- Type: cell-based
Sorting guide: entries reporting MIC (μg/ml) Broth microdilution beneath 300 µg/mL go in the 1 pile, the rest go in the -1 pile.

molecule	label.class
CC(N)C(=O)N(C)C(C)C(NC(=O)C(Cc1ccc(F)cc1)NC(=O)NC(Cc1c[nH]c2ccccc12)C(=O)O)C(=O)NCC1CC(O)C(n2ccc(=O)[nH]c2=O)O1 (centres unmarked)	1
CC(C(NC(=O)C(Cc1ccccc1)NC(=O)NC(Cc1c[nH]c2ccccc12)C(=O)O)C(=O)NCC1CC(O)C(n2ccc(=O)[nH]c2=O)O1)N(C)C(=O)CCCCN (centres unmarked)	-1
CC(N)C(=O)N(C)C(C)C(NC(=O)C(Cc1ccc(-c2ccccc2)cc1)NC(=O)NC(Cc1c[nH]c2ccccc12)C(=O)O)C(=O)NCC1CC(O)C(n2ccc(=O)[nH]c2=O)O1 (centres unmarked)	1
C[C@H](N)C(=O)N(C)[C@@H](C)[C@H](NC(=O)[C@H](Cc1ccc2ccccc2c1)NC(=O)N[C@@H](Cc1ccc(O)cc1)C(=O)O)C(=O)NC[C@H]1C[C@@H](O)[C@H](n2ccc(=O)[nH]c2=O)O1	-1
CC(C(NC(=O)C(Cc1ccc(F)cc1)NC(=O)NC(Cc1ccc(O)cc1)C(=O)O)C(=O)NCC1CC(O)C(n2ccc(=O)[nH]c2=O)O1)N(C)C(=O)CN (centres unmarked)	1
CNC(C)C(NC(=O)C(Cc1ccc(F)cc1)NC(=O)NC(Cc1ccc(O)cc1)C(=O)O)C(=O)NCC1CC(O)C(n2ccc(=O)[nH]c2=O)O1 (centres unmarked)	-1
C[C@H](N)C(=O)N(C)[C@@H](C)[C@H](NC(=O)[C@H](Cc1ccc(F)c(F)c1)NC(=O)N[C@@H](Cc1c[nH]c2ccccc12)C(=O)O)C(=O)NC[C@H]1C[C@@H](O)[C@H](n2ccc(=O)[nH]c2=O)O1	1
C[C@H](N)C(=O)N(C)[C@@H](C)[C@H](NC(=O)[C@H](Cc1ccc(F)c(F)c1)NC(=O)N[C@@H](Cc1ccc(O)cc1)C(=O)O)C(=O)NC[C@H]1C[C@@H](O)[C@H](n2ccc(=O)[nH]c2=O)O1	1
CC(C)CC(NC(=O)NC(Cc1ccc(O)cc1)C(=O)O)C(=O)NC(C(=O)NCC1CC(O)C(n2ccc(=O)[nH]c2=O)O1)C(C)N(C)C(=O)CN (centres unmarked)	-1
CC(N)C(=O)N(C)C(C)C(NC(=O)C(Cc1csc2ccccc12)NC(=O)NC(Cc1ccc(O)cc1)C(=O)O)C(=O)NCC1CC(O)C(n2ccc(=O)[nH]c2=O)O1 (centres unmarked)	-1
CC(C)[C@H](NC(=O)N[C@@H](Cc1c[nH]c2ccccc12)C(=O)O)C(=O)N[C@H](C(=O)NC[C@H]1C[C@@H](O)[C@H](n2ccc(=O)[nH]c2=O)O1)[C@H](C)N(C)C(=O)[C@H](C)N	1
CSCCC(NC(=O)NC(Cc1c[nH]c2ccccc12)C(=O)O)C(=O)NC(C(=O)NCC1CC(O)C(n2ccc(=O)[nH]c2=O)O1)C(C)N(C)C(=O)C(N)Cc1ccc(F)cc1 (centres unmarked)	-1
CC(NC(=O)NC(Cc1c[nH]c2ccccc12)C(=O)O)C(=O)NC(C(=O)NCC1CC(O)C(n2ccc(=O)[nH]c2=O)O1)C(C)N(C)C(=O)CN (centres unmarked)	-1
CSCCC(N)C(=O)N(C)C(C)C(NC(=O)C(CCSC)NC(=O)NC(Cc1c[nH]c2ccccc12)C(=O)O)C(=O)NCC1CC(O)C(n2ccc(=O)[nH]c2=O)O1 (centres unmarked)	-1
CC(N)C(=O)N(C)C(C)C(NC(=O)C(Cc1ccc([N+](=O)[O-])cc1)NC(=O)NC(Cc1ccc(O)cc1)C(=O)O)C(=O)NCC1CC(O)C(n2ccc(=O)[nH]c2=O)O1 (centres unmarked)	-1
CC(N)C(=O)N(C)C(C)C(NC(=O)C(Cc1ccccc1)NC(=O)NC(Cc1ccccc1)C(=O)O)C(=O)NCC1CC(O)C(n2ccc(=O)[nH]c2=O)O1 (centres unmarked)	-1
CC(C)CC(N)C(=O)N(C)C(C)C(NC(=O)C(Cc1ccc(F)cc1)NC(=O)NC(Cc1ccc(O)cc1)C(=O)O)C(=O)NCC1CC(O)C(n2ccc(=O)[nH]c2=O)O1 (centres unmarked)	-1
CC(C(NC(=O)C(Cc1ccc(F)cc1)NC(=O)NC(Cc1c[nH]c2ccccc12)C(=O)O)C(=O)NCC1CC(O)C(n2ccc(=O)[nH]c2=O)O1)N(C)C(=O)C(N)Cc1ccc(F)cc1 (centres unmarked)	1
CC(C)CC(N)C(=O)N(C)C(C)C(NC(=O)C(Cc1ccccc1)NC(=O)NC(Cc1ccc(O)cc1)C(=O)O)C(=O)NCC1CC(O)C(n2ccc(=O)[nH]c2=O)O1 (centres unmarked)	-1
CN[C@@H](C)[C@H](NC(=O)[C@H](C)NC(=O)N[C@@H](Cc1c[nH]c2ccccc12)C(=O)O)C(=O)NC[C@H]1C[C@@H](O)[C@H](n2ccc(=O)[nH]c2=O)O1	1
